- SYSTEM TESTED: T1, biotinylated human DLL3 protein expressed as a human IgG1 fusion protein (human, UniProt Q9NYJ7 27-492, limits assumed, biotinylated)
- T1 sequence: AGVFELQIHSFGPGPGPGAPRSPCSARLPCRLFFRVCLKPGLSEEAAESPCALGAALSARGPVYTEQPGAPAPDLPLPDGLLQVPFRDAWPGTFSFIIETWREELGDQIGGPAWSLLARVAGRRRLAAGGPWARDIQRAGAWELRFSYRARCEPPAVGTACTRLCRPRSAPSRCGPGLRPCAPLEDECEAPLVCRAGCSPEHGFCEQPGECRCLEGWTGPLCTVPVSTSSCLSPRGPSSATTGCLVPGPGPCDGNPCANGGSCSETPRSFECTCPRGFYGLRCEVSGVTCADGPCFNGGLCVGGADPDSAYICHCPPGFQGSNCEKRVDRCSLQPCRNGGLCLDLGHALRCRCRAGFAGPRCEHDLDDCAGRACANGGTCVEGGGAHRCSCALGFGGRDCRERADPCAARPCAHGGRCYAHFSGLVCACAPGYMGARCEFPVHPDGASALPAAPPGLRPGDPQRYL
- ASSAY METHOD TEXT: Octet BLI, single 50 nM
Listed here are binders together with their documented Kd.

BINDER | Kd / µM
3E02 anti-DLL3 trispecific protein (other, not shown: linker 1808, anti-albumin sdAb, linker 1808, anti-CD3 fragment, His6 1819) EVQLVESGGGLVQPGGSLTLSCAASGSGVRFLSMAWYRQAPGKKRELVAGISPDGSTDYIDSVKGRFTISRDNAKNSVYLQMNSLRAEDTAVYYCYAYRWTRRYTYWGQGTLVTVSS | 0.012
3B010 anti-DLL3 trispecific protein (other, not shown: linker 1808, anti-albumin sdAb, linker 1808, anti-CD3 fragment, His6 1819) EVQLVESGGGLVQPGGSLTLSCAASGSSVSFLSMAWYRQAPGKKRELVAGISRDGSTDYIDSVKGRFTISRDNAKNSVYLQMNSLRAEDTAVYYCYAYRWVTRYTYWGQGTLVTVSS | 0.012
2D010 anti-DLL3 trispecific protein (other, not shown: linker 1808, anti-albumin sdAb, linker 1808, anti-CD3 fragment, His6 1819) EVQLVESGGGLVQPGGSLTLSCVASGSTSSINAMGWYRRAPGKQRELVAGISSDGSKVYADSVKGRFTISRDNAKNSVYLQMNSLRAEDTAVYYCYYFRTKSGSSMRYWGQGTLVTVSS | 0.0073
3G06 anti-DLL3 trispecific protein (other, not shown: linker 1808, anti-albumin sdAb, linker 1808, anti-CD3 fragment, His6 1819) EVQLVESGGGLVQPGGSLTLSCAASGSSVKFLSMAWYRQAPGKKRELVAGISADGSTLYIDSVKGRFTISRDNAKNSVYLQMNSLRAEDTAVYYCYAYRWTTRRTYWGQGTLVTVSS | 0.012

Data provenance is patent US20240141072A1.
